// provenance: PubChem BioAssay AID2060621

# Test system: 324938-238-R-J1-PDC complex spheroids viability;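 further: viability read after seven days of drug exposure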
# ASSAY INFO: Anticancer human tumor 324938-238-R-J1-PDC patient-derived bladder carcinoma cell line growth inhibition [CLK]
# DETAILS: second compound 3.16 µM; first compound 0.0316 µM; active compounds read low
Threshold 0.2%: viability, T/C strictly smaller gives fulfilled, otherwise not fulfilled.

[[record]]
molecule = "CC1COCCN1c1cc(C2(S(C)(=N)=O)CC2)nc(-c2ccnc3[nH]ccc23)n1 (configuration not stated) + CN1CCN(c2cc(C(=O)Nc3cc4cc(-c5cnn(C)c5)ccc4cn3)ccn2)CC1"
class = "not fulfilled"

[[record]]
molecule = "O=c1[nH]cc(F)c(=O)[nH]1 + CNC(=O)c1ccc(Nc2nc(OC3CCCC3)c3c(-c4ccc5nc(C)oc5c4)c[nH]c3n2)c(OC)c1"
class = "not fulfilled"

[[record]]
molecule = "O=C(c1cc(Cc2n[nH]c(=O)c3ccccc23)ccc1F)N1CCN(C(=O)C2CC2)CC1 + CN1CCN(c2cc(C(=O)Nc3cc4cc(-c5cnn(C)c5)ccc4cn3)ccn2)CC1"
class = "not fulfilled"

[[record]]
molecule = "C=C(F)C(=O)N1CCN(c2nc(OCC3CCCN3C)nc3c2CCN(c2cccc4cccc(Cl)c24)C3)CC1CC#N (configuration not stated) + CN1CCN(c2cc(C(=O)Nc3cc4cc(-c5cnn(C)c5)ccc4cn3)ccn2)CC1"
class = "not fulfilled"

[[record]]
molecule = "C#Cc1c(F)ccc2cc(O)cc(-c3ncc4c(N5CC6CCC(C5)N6)nc(OCC56CCCN5CC(F)C6)nc4c3F)c12 (configuration not stated) + CNC(=O)c1ccc(Nc2nc(OC3CCCC3)c3c(-c4ccc5nc(C)oc5c4)c[nH]c3n2)c(OC)c1"
class = "not fulfilled"

[[record]]
molecule = "Nc1ccccc1NC(=O)c1ccc(CNC(=O)OCc2cccnc2)cc1 + CNC(=O)c1ccc(Nc2nc(OC3CCCC3)c3c(-c4ccc5nc(C)oc5c4)c[nH]c3n2)c(OC)c1"
class = "not fulfilled"

[[record]]
molecule = "C=CC(=O)N1CCN(c2nc(=O)n(-c3c(C)ccnc3C(C)C)c3nc(-c4c(O)cccc4F)c(F)cc23)C(C)C1 (configuration not stated) + CN1CCN(c2cc(C(=O)Nc3cc4cc(-c5cnn(C)c5)ccc4cn3)ccn2)CC1"
class = "fulfilled"

[[record]]
molecule = "O=C(c1cc(Cc2n[nH]c(=O)c3ccccc23)ccc1F)N1CCN(C(=O)C2CC2)CC1 + CNC(=O)c1ccc(Nc2nc(OC3CCCC3)c3c(-c4ccc5nc(C)oc5c4)c[nH]c3n2)c(OC)c1"
class = "not fulfilled"

[[record]]
molecule = "CC(Nc1ccc2c(c1)OCCn1cc(N3C(=O)OCC3C(F)F)nc1-2)C(N)=O (configuration not stated) + CN1CCN(c2cc(C(=O)Nc3cc4cc(-c5cnn(C)c5)ccc4cn3)ccn2)CC1"
class = "fulfilled"

[[record]]
molecule = "C=C(F)C(=O)N1CCN(c2nc(OCC3CCCN3C)nc3c2CCN(c2cccc4cccc(Cl)c24)C3)CC1CC#N (configuration not stated) + CNC(=O)c1ccc(Nc2nc(OC3CCCC3)c3c(-c4ccc5nc(C)oc5c4)c[nH]c3n2)c(OC)c1"
class = "not fulfilled"

[[record]]
molecule = "Nc1ccn(C2OC(CO)C(O)C2(F)F)c(=O)n1 (configuration not stated) + CN1CCN(c2cc(C(=O)Nc3cc4cc(-c5cnn(C)c5)ccc4cn3)ccn2)CC1"
class = "fulfilled"

[[record]]
molecule = "CC(Nc1ccc2c(c1)OCCn1cc(N3C(=O)OCC3C(F)F)nc1-2)C(N)=O (configuration not stated) + CNC(=O)c1ccc(Nc2nc(OC3CCCC3)c3c(-c4ccc5nc(C)oc5c4)c[nH]c3n2)c(OC)c1"
class = "not fulfilled"

[[record]]
molecule = "Cn1ncnc1[C@H]1c2n[nH]c(=O)c3cc(F)cc(c23)N[C@@H]1c1ccc(F)cc1 + CN1CCN(c2cc(C(=O)Nc3cc4cc(-c5cnn(C)c5)ccc4cn3)ccn2)CC1"
class = "fulfilled"

[[record]]
molecule = "O=c1[nH]cc(F)c(=O)[nH]1 + CN1CCN(c2cc(C(=O)Nc3cc4cc(-c5cnn(C)c5)ccc4cn3)ccn2)CC1"
class = "fulfilled"

[[record]]
molecule = "CCCS(=O)(=O)Nc1ccc(F)c(C(=O)c2c[nH]c3ncc(-c4ccc(Cl)cc4)cc23)c1F + CNC(=O)c1ccc(Nc2nc(OC3CCCC3)c3c(-c4ccc5nc(C)oc5c4)c[nH]c3n2)c(OC)c1"
class = "not fulfilled"

[[record]]
molecule = "CC(CO)NC(=O)c1cc(-c2ccc(Cl)cc2)nn(-c2cnn(C)c2)c1=O (configuration not stated) + CN1CCN(c2cc(C(=O)Nc3cc4cc(-c5cnn(C)c5)ccc4cn3)ccn2)CC1"
class = "fulfilled"

[[record]]
molecule = "CC(=O)O[C@H]1C(=O)[C@@]2(C)[C@H]([C@H](OC(=O)c3ccccc3)[C@]3(O)C[C@H](OC(=O)[C@H](O)[C@@H](NC(=O)c4ccccc4)c4ccccc4)C(C)=C1C3(C)C)[C@]1(OC(C)=O)CO[C@@H]1C[C@@H]2O + CNC(=O)c1ccc(Nc2nc(OC3CCCC3)c3c(-c4ccc5nc(C)oc5c4)c[nH]c3n2)c(OC)c1"
class = "not fulfilled"

